experiment: Plasma pharmacokinetics of resminostat in patients; assay type: in vivo, human; settings: human, plasma, po, 800 mg
metric_name: AUC

> print(dat)
                    structure.smiles.string         result
1  CN(C)Cc1ccc(S(=O)(=O)n2ccc(/C=C/C(=O)NO)c2)cc1  19400 ng·h/mL
